meta.source: ChEMBL document CHEMBL4251708

Entries and their log10 IC50 values follow.
test system: ACHN; test: Antiproliferative activity against human ACHN cells after 48 hrs by propidium iodide staining based fluorometry; assay type: functional, cell-based
A value of 2 here means IC50 of 100 in nM, since values are log10.

// below: answered molecules
Cn1c(=O)c2c(c3ccccc31)OC(N)=C(C#N)C2c1ccc(O)cc1 (stereo not drawn): 3.26
Cn1c(=O)c2c(c3ccccc31)OC(N)=C(C#N)C2c1cccc(Br)c1 (stereo not drawn): 2.95
Cn1c(=O)c2c(c3ccccc31)OC(N)=C(C#N)C2c1cccc([N+](=O)[O-])c1 (stereo not drawn): 3.20
Cn1c(=O)c2c(c3ccccc31)OC(N)=C(C#N)C2c1ccccc1 (stereo not drawn): 3.45
Cn1c(=O)c2c(c3ccccc31)OC(N)=C(C#N)C2c1cccc(Oc2ccccc2)c1 (stereo not drawn): 3.53

Here's the next entry for you.
If you can, please state the reported log10 IC50 value of Cn1c(=O)c2c(c3ccccc31)OC(N)=C(C#N)C2c1cccc(Cl)c1 (stereo not drawn) .
2.00

###

system: MDA-MB-231 (Homo sapiens); assay: Antiproliferative activity against human MDA-MB-231 cells at 1 uM relative to control; conditions: mda-mb-231, 1 µM
Is Activity at least 10%? Then rule met. If not, rule not met.

Solved cases (3 shown):
Cn1c(=O)c2c(c3ccccc31)OC(N)=C(C#N)C2c1cccc(O)c1 (stereo unspecified): rule not met
COc1ccccc1C1C(C#N)=C(N)Oc2c1c(=O)n(C)c1ccccc21 (stereo unspecified): rule met
COc1ccc(C2C(C#N)=C(N)Oc3c2c(=O)n(C)c2ccccc32)cc1OC (stereo unspecified): rule met

Determine whether this molecule has Activity no lower than 10%: Cn1c(=O)c2c(c3ccccc31)OC(N)=C(C#N)C2c1ccc([N+](=O)[O-])cc1 (stereo unspecified)
rule not met

Another: Cn1c(=O)c2c(c3ccccc31)OC(N)=C(C#N)C2c1ccc(F)cc1 (stereo unspecified)
rule not met

###

test system: PBMC; assay: Antiinflammatory activity in human PBMC assessed as inhibition of LPS-induced TNF-alpha production incubated for 30 mins followed by LPS addition measured after 4.5 hrs by ELISA; assay type: functional, cell-based
The source made the active and inactive calls. The rule behind the calls is not given here.
Property Name: inhibition

Cn1c(=O)c2c(c3ccccc31)OC(N)=C(C#N)C2c1cccc([N+](=O)[O-])c1 (stereo unspecified): Dose-dependent effect
Cn1c(=O)c2c(c3ccccc31)OC(N)=C(C#N)C2c1cccc(Oc2ccccc2)c1 (stereo unspecified): Dose-dependent effect
COc1ccc(C2C(C#N)=C(N)Oc3c2c(=O)n(C)c2ccccc32)cc1 (stereo unspecified): inactive
Cn1c(=O)c2c(c3ccccc31)OC(N)=C(C#N)C2c1ccccc1 (stereo unspecified): inactive
Cn1c(=O)c2c(c3ccccc31)OC(N)=C(C#N)C2c1ccc(O)cc1 (stereo unspecified): inactive

Here's the next entry for you.
If you can, please state the reported inhibition value of Cn1c(=O)c2c(c3ccccc31)OC(N)=C(C#N)C2c1c[nH]c2ccccc12 (stereo unspecified) .
inactive

###

test system: MIA PaCa-2 (Homo sapiens); assay: Antiproliferative activity against human MIA PaCa-2 cells at 1 uM relative to control
Entries and their Activity values follow.
State the answer as a number, implicitly in %.

If you can, please state the reported Activity value of Cn1c(=O)c2c(c3ccccc31)OC(N)=C(C#N)C2c1c2ccccc2cc2ccccc12 (stereo unspecified) .
40
